Parameter log10 of IC50: see the listing below.
biological target: D-alanyl-D-alanine carboxypeptidase (Actinomadura sp. R39)
# log10 transformed; quantity=IC50; unit=nM

Hey, D-alanyl-D-alanine carboxypeptidase (Actinomadura sp. R39) data for C[C@@H](NC(=O)c1c(F)cccc1F)B(O)O : log10 of IC50 came out at 2.70

Hey, D-alanyl-D-alanine carboxypeptidase (Actinomadura sp. R39) data for C[C@@H](NC(=O)c1ccccc1Cc1ccccc1)B(O)O : log10 of IC50 came out at 3.26

Hey, D-alanyl-D-alanine carboxypeptidase (Actinomadura sp. R39) data for C[C@H](NC(=O)c1c(F)cccc1F)B(O)O : log10 of IC50 came out at 3.52

Hey, D-alanyl-D-alanine carboxypeptidase (Actinomadura sp. R39) data for C[C@@H](NC(=O)c1c(Cl)cccc1Cl)B(O)O : log10 of IC50 came out at 3.62

Hey, D-alanyl-D-alanine carboxypeptidase (Actinomadura sp. R39) data for CC(C)c1ccccc1C(=O)N[C@H](C)B(O)O : log10 of IC50 came out at 4.77

Hey, D-alanyl-D-alanine carboxypeptidase (Actinomadura sp. R39) data for C[C@@H](NC(=O)c1ccc2ccccc2c1)B(O)O : log10 of IC50 came out at 4.15

Hey, D-alanyl-D-alanine carboxypeptidase (Actinomadura sp. R39) data for C[C@@H](NC(=O)c1ccccc1NS(=O)(=O)c1ccccc1)B(O)O : log10 of IC50 came out at 2.57

Hey, D-alanyl-D-alanine carboxypeptidase (Actinomadura sp. R39) data for C[C@@H](NC(=O)c1ccccc1-c1ccccc1)B(O)O : log10 of IC50 came out at 3.12

Hey, D-alanyl-D-alanine carboxypeptidase (Actinomadura sp. R39) data for C[C@H](NC(=O)c1ccccc1Cc1ccccc1)B(O)O : log10 of IC50 came out at 3.86

Hey, D-alanyl-D-alanine carboxypeptidase (Actinomadura sp. R39) data for C[C@@H](NC(=O)c1c(F)cccc1-c1ccccc1)B(O)O : log10 of IC50 came out at 2.43

Hey, D-alanyl-D-alanine carboxypeptidase (Actinomadura sp. R39) data for C[C@@H](NC(=O)c1ccc2sccc2c1)B(O)O : log10 of IC50 came out at 3.34

Hey, D-alanyl-D-alanine carboxypeptidase (Actinomadura sp. R39) data for C[C@@H](NC(=O)c1ccccc1C(=O)c1ccc2ccccc2c1)B(O)O : log10 of IC50 came out at 1.90

---

target: D-alanyl-D-alanine carboxypeptidase (Actinomadura sp. R39) (UniProt P39045); assay: Inhibition of Actinomadura R39 PBP assessed as residual activity at 100 uM after 60 mins
Sequence (P39045 whole entry): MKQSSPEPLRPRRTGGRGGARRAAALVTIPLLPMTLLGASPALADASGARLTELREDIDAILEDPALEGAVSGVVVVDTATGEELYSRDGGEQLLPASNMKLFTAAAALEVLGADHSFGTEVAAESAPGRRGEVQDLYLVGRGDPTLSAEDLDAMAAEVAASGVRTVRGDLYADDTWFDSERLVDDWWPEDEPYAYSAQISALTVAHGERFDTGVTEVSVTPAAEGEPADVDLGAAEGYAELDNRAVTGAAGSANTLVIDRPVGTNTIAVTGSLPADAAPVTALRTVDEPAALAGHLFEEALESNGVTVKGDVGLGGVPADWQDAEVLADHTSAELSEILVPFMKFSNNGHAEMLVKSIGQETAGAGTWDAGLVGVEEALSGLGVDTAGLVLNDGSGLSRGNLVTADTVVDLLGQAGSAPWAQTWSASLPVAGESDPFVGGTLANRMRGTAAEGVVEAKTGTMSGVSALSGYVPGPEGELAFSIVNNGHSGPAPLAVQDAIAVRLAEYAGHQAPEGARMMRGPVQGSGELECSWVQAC
Parameter Activity: see the listing below.
Report only the number, with the unit % understood.

Some compounds with known Activity results, for comparison:
C[C@@H](NC(=O)c1ccccc1NS(=O)(=O)c1ccccc1)B(O)O = 3
C[C@H](NC(=O)c1c(F)cccc1F)B(O)O = 3
C[C@@H](NC(=O)c1c(F)cccc1-c1ccccc1)B(O)O = 0
CC(C)c1ccccc1C(=O)N[C@H](C)B(O)O = 36
C[C@@H](NC(=O)c1ccccc1C(=O)c1ccc2ccccc2c1)B(O)O = 0
C[C@@H](NC(=O)c1ccc2ccccc2c1)B(O)O = 19

The reported Activity of the compound C[C@@H](NC(=O)c1ccc2sccc2c1)B(O)O was 8

The reported Activity of the compound C[C@@H](NC(=O)c1c(Cl)cccc1Cl)B(O)O was 3

The reported Activity of the compound C[C@@H](NC(=O)c1ccccc1C(c1ccccc1)c1ccccc1)B(O)O was 1

The reported Activity of the compound C[C@H](NC(=O)c1ccccc1Cc1ccccc1)B(O)O was 16

---

molecular target: D-alanyl-D-alanine carboxypeptidase (Actinomadura sp. R39); experiment: Inhibition of Actinomadura R39 PBP assessed as residual activity at 100 uM after 60 mins
Assay endpoint: Activity (%)
Report only the number, with the unit % understood.

Some compounds with known Activity results, for comparison:
C[C@@H](NC(=O)c1c(F)cccc1F)B(O)O = 0
C[C@@H](NC(=O)c1ccccc1-c1ccccc1)B(O)O = 5

Hey, D-alanyl-D-alanine carboxypeptidase (Actinomadura sp. R39) data for C[C@@H](NC(=O)c1ccccc1Cc1ccccc1)B(O)O : Activity came out at 5
